System: HEK-293T
Test: Multiplex assay against HEK293T
Type: toxicity, cell-based
Conditions: human, 12 h, 1 µM, compound concentration 1 uM, replicate 2
reported endpoint: Population Mitotic Cells (%)

{"molecule": "Cl.N#Cc1ccc2[nH]cc(CCCCN3CCN(c4ccc5oc(C(N)=O)cc5c4)CC3)c2c1 [VILAZODONE HYDROCHLORIDE]", "reported endpoint": "Population Mitotic Cells (%)", "reading": 79}
{"molecule": "COc1cc(-n2cnc3cc(-c4ccc(Cl)cc4)sc3c2=O)ccc1OCCN1CCCC1", "reported endpoint": "Population Mitotic Cells (%)", "reading": 80}
{"molecule": "CN(C)C(=O)/C(C#N)=C/c1ccc(-c2nc3cnc4[nH]ccc4c3n2C2CCCCC2)o1", "reported endpoint": "Population Mitotic Cells (%)", "reading": 78}
{"molecule": "Cn1cc(-c2[nH]c3cc(NC(=O)[C@H](N)C4CCCCC4)cc4c3c2C=NNC4=O)cn1", "reported endpoint": "Population Mitotic Cells (%)", "reading": 82}
{"molecule": "OC1(c2ccc(Cl)cc2)CCN(Cc2c[nH]c3ccccc23)CC1", "reported endpoint": "Population Mitotic Cells (%)", "reading": 81}
{"molecule": "NC(=O)Nc1cc(-c2cccc(F)c2)sc1C(=O)N[C@H]1CCCNC1", "reported endpoint": "Population Mitotic Cells (%)", "reading": 81}
{"molecule": "CN(C)C(=O)N[C@H]1CC[C@H](CCN2CCN(c3cccc(Cl)c3Cl)CC2)CC1.Cl [CARIPRAZINE HYDROCHLORIDE]", "reported endpoint": "Population Mitotic Cells (%)", "reading": 79}
{"molecule": "CN1CCN(c2ccc(OC(F)(F)F)c(Nc3ncc4c(n3)-c3c(c(C(N)=O)nn3CCO)CC4)c2)CC1", "reported endpoint": "Population Mitotic Cells (%)", "reading": 78}
{"molecule": "Cc1nc(-c2cn3c(n2)-c2ccc(-c4cnn(C(C)(C)C(N)=O)c4)cc2OCC3)n(C(C)C)n1", "reported endpoint": "Population Mitotic Cells (%)", "reading": 82}
{"molecule": "CC(C)(O)CNc1ncc(-c2ccnc(Nc3ccnc(Cl)c3)n2)c(CC2CC2)n1", "reported endpoint": "Population Mitotic Cells (%)", "reading": 82}

---

Tested on: U2OS
Assay: Multiplex assay against U2OS
Format: toxicity, cell-based
Details: human, 12 h, 1 µM, compound concentration 1 uM, replicate 1
Label MET when Population Mitotic Cells (%) is at or above 60%; otherwise label NOT MET.

{"molecule": "C=CC(=O)Nc1cccc(C(=O)Nc2ccc(Nc3cc(-c4[nH]c(SC)nc4C)ccn3)cc2)c1", "label class": "NOT MET"}
{"molecule": "CN(C)C(=O)N[C@H]1CC[C@H](CCN2CCN(c3cccc(Cl)c3Cl)CC2)CC1.Cl [CARIPRAZINE HYDROCHLORIDE]", "label class": "MET"}
{"molecule": "CN1CCCC(n2nc(Cc3ccc(Cl)cc3)c3ccccc3c2=O)CC1.Cl (stereo not given) [AZELASTINE HYDROCHLORIDE]", "label class": "NOT MET"}
{"molecule": "NC(=O)Nc1cc(-c2cccc(F)c2)sc1C(=O)N[C@H]1CCCNC1", "label class": "MET"}
{"molecule": "Cc1nc(-c2ccc(-c3ccc(C(=O)N4CCc5cc6c(cc54)C4(CCN(C)CC4)CO6)cc3)c(C)c2)no1", "label class": "NOT MET"}
{"molecule": "COc1cc(-n2cnc3cc(-c4ccc(Cl)cc4)sc3c2=O)ccc1OCCN1CCCC1", "label class": "NOT MET"}
{"molecule": "Cc1nc(Nc2n[nH]c3c2CN(C(=O)N[C@H](CN(C)C)c2ccccc2)C3(C)C)c2sccc2n1", "label class": "NOT MET"}
{"molecule": "Cc1cc(C)cc(-c2cnc3cc(Cl)c(-c4cccc(O)c4)cc3c2OCCCN)c1", "label class": "MET"}
{"molecule": "CN(C)C(=O)/C(C#N)=C/c1ccc(-c2nc3cnc4[nH]ccc4c3n2C2CCCCC2)o1", "label class": "NOT MET"}
{"molecule": "O=C1NCN(c2ccccc2)C12CCN(CCCOc1ccc(F)cc1)CC2 [SPIRAMIDE]", "label class": "MET"}
